Target Under Test: furin, P09958;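 note: purified furin at 1:10 enzyme:substrate in 50 mM HEPES pH 7.5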
Sequence (P09958 whole entry): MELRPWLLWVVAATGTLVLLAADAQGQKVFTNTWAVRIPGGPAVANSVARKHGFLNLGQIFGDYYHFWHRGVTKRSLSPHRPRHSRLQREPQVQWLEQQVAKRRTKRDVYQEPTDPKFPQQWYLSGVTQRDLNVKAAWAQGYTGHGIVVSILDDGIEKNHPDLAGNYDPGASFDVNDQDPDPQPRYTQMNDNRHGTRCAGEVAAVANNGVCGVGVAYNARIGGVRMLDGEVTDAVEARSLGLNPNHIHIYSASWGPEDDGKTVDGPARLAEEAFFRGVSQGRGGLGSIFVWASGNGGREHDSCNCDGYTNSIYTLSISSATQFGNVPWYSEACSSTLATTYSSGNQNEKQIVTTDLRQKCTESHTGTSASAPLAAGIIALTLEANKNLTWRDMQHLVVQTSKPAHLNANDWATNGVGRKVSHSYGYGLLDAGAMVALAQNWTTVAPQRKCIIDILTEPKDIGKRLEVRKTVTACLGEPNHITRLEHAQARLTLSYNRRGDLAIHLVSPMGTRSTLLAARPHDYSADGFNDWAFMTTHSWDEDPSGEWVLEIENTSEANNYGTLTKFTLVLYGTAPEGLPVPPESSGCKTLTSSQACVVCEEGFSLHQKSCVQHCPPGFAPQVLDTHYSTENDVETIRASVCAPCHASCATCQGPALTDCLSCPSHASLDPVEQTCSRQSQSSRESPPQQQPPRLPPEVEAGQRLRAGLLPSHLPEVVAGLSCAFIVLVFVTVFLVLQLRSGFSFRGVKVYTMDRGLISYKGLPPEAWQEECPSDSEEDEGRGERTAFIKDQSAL
Procedure Text: furin cleavage Z-score vs untreated control; higher = more cleavage, active = 3.5 or more, inactive = 1 or less, 8 variable residues between constant flanks
Details: 30 min
The other results are listed elsewhere or left out. The true hit rate is not given.
Property Measured: furin cleavage Z-score
Write the value as a bare number.

Challenge: Which furin cleavage Z-score value belongs to CAEVFCVQPEAGNASASA [HC1442] ?
Response given: -0.965

Challenge: Same again, this time with CATTPCIGSWAGNASASA [HC65]
Response given: 2

Challenge: Also CASWDQMWKCAGNASASA [HC962] ?
Response given: -0.53

Challenge: Param item: CAAVARLKRSAGNASASA [FS-218]
Response given: 9

Challenge: What about CAQRQPFPRDAGNASASA [FS-951] ?
Response given: -1.03

Challenge: Repeat with CALQRRKKKGAGNASASA [FS-1643]
Response given: 0.433

Challenge: What would you report for CATIKRSVISAGNASASA [FS-2853] ?
Response given: -1.24

Challenge: Field entry: CAKPARLIVFAGNASASA [HC1448]
Response given: -1.48

Challenge: Now consider CATTPHSGSWAGNASASA [HC49] .
Response given: -0.65

Challenge: Then this sequence: CANQLRVKRSAGNASASA [FS-554]
Response given: 3.97

Challenge: Input CAVCGDDLVVAGNASASA [HC1528]
Response given: -0.381

Challenge: Subsequent entry: CATTPCWGSWAGNASASA [HC67]
Response given: 1.23

Challenge: What about CASPTTALVMAGNASASA [HC324] ?
Response given: -1.02

Challenge: Item: CAFVQRVFRDAGNASASA [FS-776]
Response given: 0.515

Challenge: Quick one: CAHHSPLKRSAGNASASA [FS-30]
Response given: 1.29

Challenge: Please answer likewise for CAGFRRSMDQAGNASASA [FS-2860]
Response given: 0.074

Challenge: Query CAGGWVAAQLAGNASASA [HC1067] next
Response given: 0.105

Challenge: Same question for CAEQVTSTWVAGNASASA [HC2182] please.
Response given: 0.572

Challenge: Also need CAAVQRVPRDAGNASASA [FS-1312] , thanks.
Response given: 5.33

Challenge: Continue with CAMMNWSPTTAGNASASA [HC322]
Response given: -1.29

Challenge: Ok, now CAVTPCSGSWAGNASASA [HC1830]
Response given: -0.453

Challenge: Entry to check: CASLLKVPYFAGNASASA [HC613]
Response given: -0.906

Challenge: Would you kindly repeat that for CAEVQCHRPSAGNASASA [HC2362] ?
Response given: 0.778

Taken from the supplement of paper PMC3545927.
